Molecular target: FLT3-ITD (Homo sapiens, UniProt P36888, DUP595-601)
Sequence (P36888 with tags, fused parts or gaps DUP595-601 limits assumed): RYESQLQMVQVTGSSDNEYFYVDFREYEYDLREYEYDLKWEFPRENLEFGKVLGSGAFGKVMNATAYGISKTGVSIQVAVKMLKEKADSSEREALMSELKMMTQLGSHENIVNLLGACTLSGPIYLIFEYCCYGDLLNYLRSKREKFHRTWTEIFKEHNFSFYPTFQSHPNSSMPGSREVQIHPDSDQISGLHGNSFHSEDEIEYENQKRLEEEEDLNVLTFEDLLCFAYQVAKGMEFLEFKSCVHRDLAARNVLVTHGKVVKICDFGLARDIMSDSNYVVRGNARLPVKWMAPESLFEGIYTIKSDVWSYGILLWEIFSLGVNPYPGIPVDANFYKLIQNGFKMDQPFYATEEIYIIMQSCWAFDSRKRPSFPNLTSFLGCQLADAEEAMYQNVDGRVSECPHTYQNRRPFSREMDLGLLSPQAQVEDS
Assay: FLT3-ITD Lance Ultra TR-FRET kinase assay
observable: IC50

// solved cases for IC50 follow
{"compound": "CCc1nc(C(N)=O)c(Nc2cncc(CCNC(=O)[C@H](C)N(C)C(=O)/C=C/CN(C)C)c2)nc1C1CC1", "assayed_target": "FLT3-ITD (Homo sapiens, UniProt P36888, DUP595-601)", "IC50": "> 1 nM"}
{"compound": "CCCc1nc(Nc2cccc([C@@H](C)CNC(=O)CN(C)C(=O)/C=C/CN3CCC3)c2)c(C(N)=O)nc1CC", "assayed_target": "FLT3-ITD (Homo sapiens, UniProt P36888, DUP595-601)", "IC50": "0.201 to 0.5 nM"}
{"compound": "C=CC(=O)N(C)CC(=O)NCCc1cccc(Nc2nc(N(C)C(C)C)c(CC)nc2C(N)=O)c1", "assayed_target": "FLT3-ITD (Homo sapiens, UniProt P36888, DUP595-601)", "IC50": "0.101 to 0.2 nM"}
{"compound": "CCc1nc(C(N)=O)c(Nc2cccc([C@@H](C)CNC(=O)CN(C)C(=O)/C=C/CN3CCC3)c2)nc1N(C)CC", "assayed_target": "FLT3-ITD (Homo sapiens, UniProt P36888, DUP595-601)", "IC50": "0.101 to 0.2 nM"}
{"compound": "C=Cc1nc(C(N)=O)c(Nc2cccc(CCNC(=O)CN(C)C(=O)/C=C/CN(C)C)c2)nc1N(C)C(C)C", "assayed_target": "FLT3-ITD (Homo sapiens, UniProt P36888, DUP595-601)", "IC50": "0.201 to 0.5 nM"}

Input: Could you share which IC50 value was measured for `CCc1nc(C(N)=O)c(Nc2cccc(CCNC(=O)CN(C)C(=O)/C=C/CN3CCC3)c2)nc1OC(C)C` ?
Output: 0.201 to 0.5 nM

Input: Quick check: IC50 of `CCc1nc(C(N)=O)c(Nc2cccc(CCNC(=O)[C@H](C)N(C)C(=O)C#CCN(C)C)c2)nc1N(C)C` ?
Output: 0.201 to 0.5 nM

Input: For the compound `C=CC(=O)N(C)CC(=O)NCCc1cc(Nc2nc(N(C)CC)c(CC)nc2C(N)=O)ccn1` , what IC50 is on record?
Output: 0.101 to 0.2 nM

Input: Entry under review: `CCc1nc(C(N)=O)c(Nc2ccnc(CCNC(=O)CN(C)C(=O)/C=C/CN3CCC3)c2)nc1C1CC1` . Reported IC50?
Output: 0.501 to 1 nM
